- experiment-summary: chemical genetic growth profiling, strain panel (AID 1159580);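 also: tested at 20 µM; growth read once vehicle control cultures reached saturation at 30 °C; 1 = growth at the plate median or of vehicle wells; lower values mean less growth of the strain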
- stated-conditions: S. cerevisiae deletion strains, growth OD, locus YPR163C, strain tif3, active compounds read low
Out of some 5,500 compounds screened, about 2,000 (36%) were called active. Inconclusive results (about 18%) are left out. Some of the results follow.
# normalized growth per record follows
I only need the number, thanks.

Recorded normalized growth, per entry:
* O=C(CCCN1CC=C(n2c(=O)[nH]c3ccccc32)CC1)c1ccc(F)cc1 | 0.989
* O=c1[nH]c2ccccc2n1C1CCN(CCCC(c2ccc(F)cc2)c2ccc(F)cc2)CC1 | 1
* CN1Cc2c(N)cccc2C(c2ccccc2)C1 (centres undefined) | 1.01
* Cn1cnc([N+](=O)[O-])c1Sc1ncnc2nc[nH]c12 | 0.981
* CCCCCN=C(N)N/N=C\c1c[nH]c2ccc(OC)cc12 | 1.02
* CC(C(=O)O)c1ccc(N2Cc3ccccc3C2=O)cc1 (centres undefined) | 0.996
* CN(C)c1nc(N(C)C)nc(N(C)C)n1 | 1.02
* CC(=O)OC1CCC23C(=O)OC45CCC(C6=CC(=O)OC6)C4(C)CCC2C5CCC3(O)C1 (centres undefined) | 1.01
* COP(=S)(OC)SCn1nnc2ccccc2c1=O | 0.99
* CC(=O)O[C@@H]1CC2C(C)(C)C(=O)[C@@H]3O[C@@H]3[C@]2(C)C2CC[C@]3(C)C(=CC(=O)O[C@H]3c3ccoc3)[C@@]21C (some centres undefined) | 0.982

Problem: Could you tell me which normalized growth is on file for O=C1c2ccc(O)c(O)c2C(=O)c2c(O)ccc(O)c21 ?
Result: 1.01

Problem: And for CCCc1nc(C(C)(C)O)c(C(=O)OCc2oc(=O)oc2C)n1Cc1ccc(-c2ccccc2-c2nn[nH]n2)cc1 ?
Result: 0.981

Problem: And for CNC(=O)CSP(=S)(OC)OC ?
Result: 1.02

Problem: And for Cc1cc(O)c2c(c1O)C(=O)c1c(O)cc(C)c(O)c1C2=O ?
Result: 1
